Molecular target: plasma purified human complement protein C3 (human) (UniProt P01024)
Sequence (P01024 23-667, chain 1 of 2): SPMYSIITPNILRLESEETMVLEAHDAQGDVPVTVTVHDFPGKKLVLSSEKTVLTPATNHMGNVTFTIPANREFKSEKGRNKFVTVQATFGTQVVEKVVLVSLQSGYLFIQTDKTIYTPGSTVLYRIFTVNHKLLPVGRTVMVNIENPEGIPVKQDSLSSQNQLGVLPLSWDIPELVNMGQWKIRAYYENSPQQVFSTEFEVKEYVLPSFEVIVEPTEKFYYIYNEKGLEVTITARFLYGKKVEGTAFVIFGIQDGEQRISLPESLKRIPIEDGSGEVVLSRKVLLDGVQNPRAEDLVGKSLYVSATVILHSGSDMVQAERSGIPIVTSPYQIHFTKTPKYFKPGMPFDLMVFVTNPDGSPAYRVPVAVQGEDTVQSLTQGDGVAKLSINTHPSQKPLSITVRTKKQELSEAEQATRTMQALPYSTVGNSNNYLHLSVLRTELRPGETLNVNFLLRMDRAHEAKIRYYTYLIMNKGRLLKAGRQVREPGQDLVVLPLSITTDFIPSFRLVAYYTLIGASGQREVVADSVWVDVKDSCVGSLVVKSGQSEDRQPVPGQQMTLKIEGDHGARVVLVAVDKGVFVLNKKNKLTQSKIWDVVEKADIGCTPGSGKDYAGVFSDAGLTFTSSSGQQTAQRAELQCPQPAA
Sequence (P01024 672-1663, chain 2 of 2): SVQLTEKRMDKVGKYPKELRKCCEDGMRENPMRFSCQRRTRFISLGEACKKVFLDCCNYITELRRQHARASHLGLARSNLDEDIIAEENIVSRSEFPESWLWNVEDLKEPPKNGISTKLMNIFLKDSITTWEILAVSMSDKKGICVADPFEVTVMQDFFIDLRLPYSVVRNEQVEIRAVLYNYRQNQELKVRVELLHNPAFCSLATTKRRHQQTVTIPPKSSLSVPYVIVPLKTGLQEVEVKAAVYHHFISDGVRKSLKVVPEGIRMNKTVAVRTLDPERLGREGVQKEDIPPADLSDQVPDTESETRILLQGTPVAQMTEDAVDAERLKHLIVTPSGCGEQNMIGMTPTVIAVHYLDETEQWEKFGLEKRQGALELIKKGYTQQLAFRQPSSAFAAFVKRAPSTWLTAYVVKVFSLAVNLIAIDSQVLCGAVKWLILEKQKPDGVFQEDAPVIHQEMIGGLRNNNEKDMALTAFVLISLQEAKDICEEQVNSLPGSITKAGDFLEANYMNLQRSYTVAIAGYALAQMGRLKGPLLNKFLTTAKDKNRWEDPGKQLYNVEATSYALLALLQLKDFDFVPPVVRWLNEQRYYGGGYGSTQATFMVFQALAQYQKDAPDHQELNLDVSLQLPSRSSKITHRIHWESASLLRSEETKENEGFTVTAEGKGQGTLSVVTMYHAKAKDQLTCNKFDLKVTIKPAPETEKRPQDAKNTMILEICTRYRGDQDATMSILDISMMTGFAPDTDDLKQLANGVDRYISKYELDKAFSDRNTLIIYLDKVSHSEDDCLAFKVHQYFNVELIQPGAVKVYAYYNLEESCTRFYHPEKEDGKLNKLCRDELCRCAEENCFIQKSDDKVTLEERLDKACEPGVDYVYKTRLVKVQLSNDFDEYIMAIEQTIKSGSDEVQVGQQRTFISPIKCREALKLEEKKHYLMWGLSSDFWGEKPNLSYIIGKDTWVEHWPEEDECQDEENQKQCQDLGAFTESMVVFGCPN
Test: cell-based or functional assay
Measured quantity: EC50 of hC3 cleavage (nM)
I only need the number, in nM, no unit after it.

- MTSP-1 I41G/F97V/F99L/C122S/G151Q/Q175M/Q192A/D217L (enzyme) VVGGTDADEGEWPWQVSLHALGQGHGCGASLISPNWLVSAAHCYIDDRGFRYSDPTQWTAFLGLHDQSQRSAPGVQERRLKRIISHPFFNDVTLDYDIALLELEKPAEYSSMVRPISLPDASHVFPAGKAIWVTGWGHTQYGGTQALILQKGEIRVINQTTCENLLPQMITPRMMCVGFLSGGVDSCAGDSGGPLSSVEADGRIFQAGVVSWGLGCAQRNKPGVYTRLPLFRDWIKENTGV: 9.74

Q. What EC50 of hC3 cleavage value was documented for this binder, MTSP-1 Q38H/I41A/D60bT/F60eK/ins97aE/F97T/T98G/F99L/C122S/Q175L/Q192E (enzyme) VVGGTDADEGEWPWQVSLHALGHGHACGASLISPNWLVSAAHCYIDTRGKRYSDPTQWTAFLGLHDQSQRSAPGVQERRLKRIISHPFFNDTEGLDYDIALLELEKPAEYSSMVRPISLPDASHVFPAGKAIWVTGWGHTQYGGTGALILQKGEIRVINQTTCENLLPQLITPRMMCVGFLSGGVDSCEGDSGGPLSSVEADGRIFQAGVVSWGDGCAQRNKPGVYTRLPLFRDWIKENTGV ?
A. 14.6

Q. What EC50 of hC3 cleavage value was documented for this binder, MTSP-1 Q38H/I41A/D60bE/F60eH/Y60gW/ins97aE/F97T/T98G/F99L/C122S/Q175L/Q192D (enzyme) VVGGTDADEGEWPWQVSLHALGHGHACGASLISPNWLVSAAHCYIDERGHRWSDPTQWTAFLGLHDQSQRSAPGVQERRLKRIISHPFFNDTEGLDYDIALLELEKPAEYSSMVRPISLPDASHVFPAGKAIWVTGWGHTQYGGTGALILQKGEIRVINQTTCENLLPQLITPRMMCVGFLSGGVDSCDGDSGGPLSSVEADGRIFQAGVVSWGDGCAQRNKPGVYTRLPLFRDWIKENTGV ?
A. 5.38

Q. What EC50 of hC3 cleavage value was documented for this binder, MTSP-1 Q38R/I41T/ins97aE/F97T/T98G/F99L/C122S/G151N/Q175L/Q192G (enzyme) VVGGTDADEGEWPWQVSLHALGRGHTCGASLISPNWLVSAAHCYIDDRGFRYSDPTQWTAFLGLHDQSQRSAPGVQERRLKRIISHPFFNDTEGLDYDIALLELEKPAEYSSMVRPISLPDASHVFPAGKAIWVTGWGHTQYGGTNALILQKGEIRVINQTTCENLLPQLITPRMMCVGFLSGGVDSCGGDSGGPLSSVEADGRIFQAGVVSWGDGCAQRNKPGVYTRLPLFRDWIKENTGV ?
A. 30.6

Q. What EC50 of hC3 cleavage value was documented for this binder, MTSP-1 Q38H/I41S/D60bS/ins97aV/F97D/T98P/F99L/C122S/I136V/Q192G/D217V (enzyme) VVGGTDADEGEWPWQVSLHALGHGHSCGASLISPNWLVSAAHCYIDSRGFRYSDPTQWTAFLGLHDQSQRSAPGVQERRLKRIISHPFFNDDVPLDYDIALLELEKPAEYSSMVRPISLPDASHVFPAGKAVWVTGWGHTQYGGTGALILQKGEIRVINQTTCENLLPQQITPRMMCVGFLSGGVDSCGGDSGGPLSSVEADGRIFQAGVVSWGVGCAQRNKPGVYTRLPLFRDWIKENTGV ?
A. 7.05
